Catalogue of IC50 values
molecular target: SAE (Homo sapiens, UniProt Q9UBT2); construct: endogenous in cells; host or cells: HCT116; experiment: SUMO IF: in vitro inhibitory activity assay against SAE in HCT116 cells (SUMO-2/3 immunofluorescence); format: cell-based; details: class symbols, 6 h at 37° C.

Example entries and their recorded answers appear below.
// returns reported IC50 for input NS(=O)(=O)OC[C@H]1[C@H](F)[C@@H](Nc2ncncc2C(=O)c2cc3c(s2)C(F)=C[C@@]32NCCc3ccc(Cl)cc32)C[C@@H]1O [Compound 322]
> 200 nM

Quick one: IC50 of N#Cc1ccc2c(c1)[C@]1(CCc3sc(C(=O)c4cncnc4N[C@H]4C[C@H](O)[C@@H](COS(N)(=O)=O)[C@@H]4F)cc31)NCC2 [Compound 137] ?
> 200 nM

Looking for the measured IC50 of NS(=O)(=O)OC[C@H]1[C@H](F)[C@@H](Nc2ncncc2C(=O)c2cc3c(s2)CCCC32NCCc3cc(Cl)ncc32)C[C@@H]1O (stereo partly drawn) [Compound 119] , can you help?
50 to 200 nM

Given the molecule COc1cc2c(cc1Cl)C1(CCc3sc(C(=O)c4cncnc4N[C@H]4C[C@H](O)[C@@H](COS(N)(=O)=O)[C@@H]4F)cc31)NCC2 (stereo partly drawn) [Compound 157] , what is its reported IC50?
50 to 200 nM

Could you share which IC50 value was measured for NS(=O)(=O)OC[C@H]1[C@H](F)[C@@H](Nc2ncncc2C(=O)c2cc3c(s2)COC[C@]32NCCc3ccc(Cl)c(F)c32)C[C@@H]1O [Compound 569] ?
50 to 200 nM

Give the measured IC50 of Cc1sc(C(=O)c2cncnc2N[C@H]2C[C@H](O)[C@@H](COS(N)(=O)=O)[C@@H]2F)cc1[C@@H]1OCCc2ccc(Cl)cc21 [Compound 988] .
50 to 200 nM

Look up IC50 for this molecule: NS(=O)(=O)OC[C@H]1[C@H](F)[C@@H](Nc2ncncc2C(=O)c2cc3c(s2)COCC32NCCc3c(Cl)cc(Cl)cc32)C[C@@H]1O (stereo partly drawn) [Compound 564]
50 to 200 nM

Look at this molecule and give its reported IC50. NS(=O)(=O)OC[C@H]1[C@H](F)[C@@H](Nc2ncncc2C(=O)c2cc3c(s2)CC[C@]32NCCc3cc(F)c(F)cc32)C[C@@H]1O [Compound 691]
≤ 50 nM

Continuing:
IC50 lookup needed for NS(=O)(=O)OC[C@H]1[C@H](F)[C@@H](Nc2ncncc2C(=O)c2cc3c(s2)CC[C@@]32OCCc3ccccc32)C[C@@H]1O [Compound 745] , thanks.
> 200 nM

Looking for the measured IC50 of CN1Cc2sc(C(=O)c3cncnc3N[C@H]3C[C@H](O)[C@@H](COS(N)(=O)=O)[C@@H]3F)cc2C2(C1)OCCc1ccccc12 (stereo partly drawn) [Compound 717] , can you help?
50 to 200 nM

Entry Cc1sc(C(=O)c2cncnc2N[C@H]2C[C@H](O)[C@@H](COS(N)(=O)=O)[C@@H]2F)cc1C1NC2(CC2)Cc2ccc(Cl)cc21 (stereo partly drawn) [Compound 266] has what IC50?
50 to 200 nM

Can you look up the measured IC50 of CC1(C)CN[C@@]2(CCCc3sc(C(=O)c4cncnc4N[C@H]4C[C@H](O)[C@@H](COS(N)(=O)=O)[C@@H]4F)cc32)c2cc(Cl)ccc21 [Compound 1027] for me?
> 200 nM

----------
Here, each record is paired with measured Cmax data.
assay: In vivo pharmacokinetic experiment in CD-1 female mice, intravenous; details: mouse, 2 mg/kg, CD-1 mice, 2 mpk, whole blood, read-out: Whole blood Cmax
Hi! Could you send only the number? It should be in ng/mL, unit omitted.

// below: answered compounds
Any idea what its Cmax is? The compound is `NS(=O)(=O)OC[C@H]1[C@H](F)[C@@H](Nc2ncncc2C(=O)c2cc3c(s2)C=C[C@]32NCCc3ccc(Cl)cc32)C[C@@H]1O`
7780

Item under review: `NS(=O)(=O)OC[C@H]1[C@H](F)[C@@H](Nc2ncncc2C(=O)c2cc3c(s2)CCC[C@]32NCCc3ccc(F)cc32)C[C@@H]1O` . Reported Cmax?
13300

Item under review: `NS(=O)(=O)OC[C@H]1[C@H](F)[C@@H](Nc2ncncc2C(=O)c2cc3c(s2)CC[C@]32NCCc3ccc(Cl)cc32)C[C@@H]1O` . Reported Cmax?
9270

Okay, now this compound:
Recorded Cmax of `NS(=O)(=O)OC[C@H]1[C@H](F)[C@@H](Nc2ncncc2C(=O)c2cc3c(s2)CCC[C@]32NCCc3ccc(Cl)cc32)C[C@@H]1O` , please.
13400

----------
Target: SAE (Homo sapiens, UniProt Q9UBT2)
Construct: endogenous in cells; host or cells: HCT116
Sequence (Q9UBT2 1-640): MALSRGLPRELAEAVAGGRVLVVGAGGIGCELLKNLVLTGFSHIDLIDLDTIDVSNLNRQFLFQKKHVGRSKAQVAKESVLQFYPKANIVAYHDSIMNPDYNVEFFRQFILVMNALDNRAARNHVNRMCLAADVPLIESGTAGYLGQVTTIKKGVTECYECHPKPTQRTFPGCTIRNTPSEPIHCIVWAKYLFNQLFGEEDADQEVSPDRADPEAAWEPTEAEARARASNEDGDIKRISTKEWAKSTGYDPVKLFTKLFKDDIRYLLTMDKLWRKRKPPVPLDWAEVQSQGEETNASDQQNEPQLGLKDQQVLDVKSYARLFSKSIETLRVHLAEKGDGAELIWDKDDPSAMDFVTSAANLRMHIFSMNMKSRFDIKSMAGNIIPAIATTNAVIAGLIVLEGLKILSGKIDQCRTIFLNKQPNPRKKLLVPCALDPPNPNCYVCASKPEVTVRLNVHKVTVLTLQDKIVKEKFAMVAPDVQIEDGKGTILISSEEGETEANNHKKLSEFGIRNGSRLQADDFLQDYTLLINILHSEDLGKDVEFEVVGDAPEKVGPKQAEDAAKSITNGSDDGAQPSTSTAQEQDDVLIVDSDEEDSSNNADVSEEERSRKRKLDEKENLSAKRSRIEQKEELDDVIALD
Sequence (Q9UBE0 1-346): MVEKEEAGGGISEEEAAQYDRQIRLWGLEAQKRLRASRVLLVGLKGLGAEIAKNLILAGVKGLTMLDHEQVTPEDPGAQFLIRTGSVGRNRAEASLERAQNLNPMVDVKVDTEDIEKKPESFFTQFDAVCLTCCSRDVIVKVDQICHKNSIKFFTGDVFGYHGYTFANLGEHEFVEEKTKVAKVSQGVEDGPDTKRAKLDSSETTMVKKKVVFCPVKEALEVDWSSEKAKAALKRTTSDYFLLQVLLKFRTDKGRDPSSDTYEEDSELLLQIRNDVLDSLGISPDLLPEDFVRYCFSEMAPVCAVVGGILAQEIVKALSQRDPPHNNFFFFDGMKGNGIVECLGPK
Assay: SUMO IF: in vitro inhibitory activity assay against SAE in HCT116 cells (SUMO-2/3 immunofluorescence)
Format: cell-based
Conditions: numeric values, 6 h at 37° C.
Below, each of the molecules is paired with its reported IC50 value.
Expressed in nM, but write only the number.

What is its IC50 for SAE (Homo sapiens, UniProt Q9UBT2)? Entry: NS(=O)(=O)OC[C@H]1[C@H](F)[C@@H](Nc2ncncc2C(=O)c2cc3c(s2)COC[C@]32NCCc3ccc(Cl)cc32)C[C@@H]1O [Compound 105]
79.3

Form field: IC50 recorded for NS(=O)(=O)OC[C@H]1[C@H](F)[C@@H](Nc2ncncc2C(=O)c2cc3c(s2)CSC[C@]32NCCc3ccc(Cl)cc32)C[C@@H]1O [Compound 302] with SAE (Homo sapiens, UniProt Q9UBT2) (enter value)
21.5

Form: Entry = C#CCN1Cc2sc(C(=O)c3cncnc3N[C@H]3C[C@H](O)[C@@H](COS(N)(=O)=O)[C@@H]3F)cc2[C@]2(C1)NCCc1ccc(Cl)cc12 [Compound 659] | System = SAE (Homo sapiens, UniProt Q9UBT2) | IC50 = ____
20.3

// map NS(=O)(=O)OC[C@H]1[C@H](F)[C@@H](Nc2ncncc2C(=O)c2cc3c(s2)CN(C2CC2)C[C@]32NCCc3ccc(Cl)cc32)C[C@@H]1O [Compound 581] to recorded IC50 (system: SAE (Homo sapiens, UniProt Q9UBT2))
23.8

Find IC50 (SAE (Homo sapiens, UniProt Q9UBT2)) for the entry NS(=O)(=O)OC[C@H]1[C@H](F)[C@@H](Nc2ncncc2C(=O)c2cc3c(s2)CC[C@]32NCCc3ccc(Cl)cc32)C[C@@H]1O [Compound 132]
40.6

Pending molecule:
I'm curious: which IC50 was measured for NS(=O)(=O)OC[C@H]1[C@H](F)[C@@H](Nc2ncncc2C(=O)c2cc3c(s2)CCC[C@]32NCCc3ccc(F)cc32)C[C@@H]1O [Compound 93] tested on SAE (Homo sapiens, UniProt Q9UBT2)?
32.1
